For each of the compounds below, state its TGI.
System: U251 CNS
Measurement description: NCI tumour cell line growth inhibition, 48 h
Could you give me the number in µM? Just the number is fine.

## Task Which TGI is reported for this compound? O=c1cc(-c2ccccc2Cl)[nH]c2cc3c(cc12)OCO3
## Result 1.25

## Task Also CN(C)/C=N/S(=O)(=O)c1nn2c(C=O)c(-c3ccc([N+](=O)[O-])cc3)nc2s1 ?
## Result 41.6

## Task Also CSc1ccc(C2=NN(C(=O)c3ccc(N)cc3)C(c3ccc(F)cc3)C2)cc1 (stereo not given) ?
## Result 12.6

====

For each of the molecules below, state its TGI.
Tested on: KM12 colon
Measurement description: NCI tumour cell line growth inhibition, 48 h

## Task Which TGI is reported for this molecule? CN(C)/C=N/S(=O)(=O)c1nn2c(C=O)c(-c3ccc([N+](=O)[O-])cc3)nc2s1
## Result 42.3 µM

## Task Also O=C1CCC(=O)C(C(=O)CCC(=O)Nc2cccc(Cl)c2)C1 (stereo not given) ?
## Result > 100 µM

## Task Also O=P1(O)c2ccccc2CS(=O)(=O)Cc2ccccc21 ?
## Result > 100 µM

## Task Also CCN1C(=O)N(CC)C2C1NN=c1s/c(=C\c3ccccc3)c(=O)n12 (stereo not given) ?
## Result > 100 µM

## Task Also COc1c2ccoc2c(S(=O)(=O)Nc2ccc(Cl)cc2)c2oc(C)cc(=O)c12 ?
## Result > 100 µM

====

System: A549 NSCLC
Measurement description: NCI tumour cell line growth inhibition, 48 h
Test readout: TGI (µM)
Could you give me the number in µM? Just the number is fine.

## Task Which TGI is reported for this molecule? CCN(CC)c1ccc2nc3c4ccccc4c(=NC(=O)c4ccccc4-c4c5ccc(N(CC)CC)cc5[o+]c5cc(N(CC)CC)ccc45)cc-3oc2c1
## Result 5.08

## Task Also CSc1ccc(C2=NN(C(=O)c3ccc(N)cc3)C(c3ccc(F)cc3)C2)cc1 (stereo not given) ?
## Result 32.7

## Task Also COc1ccc2[nH]c3c(C)c4cnccc4c(C)c3c2c1 ?
## Result 3.65

====

System: NCI-H226 lung
Measurement description: NCI tumour cell line growth inhibition, 48 h
Test readout: TGI (µM)
Could you give me the number in µM? Just the number is fine.

## Task Tell me reported TGI for CC1(C)O[C@@H](CP(c2ccccc2)c2ccccc2)[C@H](CP(c2ccccc2)c2ccccc2)O1 , tested with NCI-H226 lung.
## Result 51.1

## Task Also CCOC(=O)C(Cc1ccc(OC)cc1)C(=O)OCC ?
## Result 30.3

## Task Also CCCCCCC1N=C(N)N=C(N)N1c1ccc(Cl)cc1 (centres undefined) ?
## Result 54.2

## Task Also CC(C)(C)c1cc(C(C)(C)C)c2sc(=S)oc2c1O ?
## Result 34.2

====

Test system: ACHN renal
Measurement description: NCI tumour cell line growth inhibition, 48 h
Where a SMILES comes first, the peptide text is derived from it. The star is where a group is joined. Boc = CC(C)(C)OC(=O)*
For each of the compounds below, state its TGI.
Could you give me the number in µM? Just the number is fine.

## Task Which TGI is reported for this compound? CCOC(=O)C(CC(C)C)NC(=O)C(Cc1ccccc1)NC(=O)CNC(=O)OC(C)(C)C (stereo not drawn) (Boc-Gly-Phe-Leu-OEt; configuration not given here)
## Result 30.8

## Task Also Oc1ccc2ccccc2c1Cc1c(O)ccc2ccccc12 ?
## Result 33.8

## Task Also COP(=O)(C(/C=C/c1ccccc1)OC(C)=O)[C@@H]1CCCC[C@H]1N(CC(C)(C)C)C(C)=O (stereo not given in full) ?
## Result 30.7

## Task Also Cc1cc2nc3c4ccccc4n(CCN(C)C)c3nc2cc1C ?
## Result 11.3

## Task Also CN(NC(=O)CC(=O)NN(C)C(=S)c1ccc(Cl)cc1)C(=S)c1ccc(Cl)cc1 ?
## Result 85.8

## Task Also CCOC(=O)c1c(C(F)(F)F)oc2c1ccc1nc3nonc3nc12 ?
## Result 29.4

## Task Also CO[C@H](c1ccccc1)[C@H](C)N(C)c1ccc2ccccc2c1C1=NC(C)(C)CO1 ?
## Result 36.4

## Task Also CCN(CC)c1ccc2nc3c4ccccc4c(=NC(=O)c4ccccc4-c4c5ccc(N(CC)CC)cc5[o+]c5cc(N(CC)CC)ccc45)cc-3oc2c1 ?
## Result 13.7
